meta.source: paper PMC4917206

# Target System: HLA-A*0301 (Homo sapiens)
# Construct: Soluble MHC was dissolved in PBS containing 0.5 mg/ml bovine γ-globulin; made in house
# Format: binding
# cutoff 90% applies to FP binding score, percentage inhibition of tracer peptide binding, 24h; >= gives fulfilled, < gives not fulfilled

>>> assigned_class("RMVLSAF[ORN]ER [R41]")
"not fulfilled"
>>> assigned_class("RMVLSAF[CpALA]ER [R42]")
"not fulfilled"
>>> assigned_class("SF[4-FPHE]FGGFTK [S84]")
"fulfilled"
>>> assigned_class("RM[2-AOC]LSAFDER [R50]")
"not fulfilled"
>>> assigned_class("S[NVA][NLE]FGGFTK [S94]")
"fulfilled"
>>> assigned_class("RMVLSAFDER [R WT, reference compound]")
"not fulfilled"

----------
# Target System: HLA-A*0201 (Homo sapiens, UniProt P04439, D140Y/D185E/D98H/E176V/E277Q/G131W/G231S/I119V/I121R/I166T/I218V/L300P/L318F/N151K/N90K/P208A/P217A/Q86G/Q94H/R138H/R169H/T345S)
# Construct: Soluble MHC was dissolved in PBS containing 0.5 mg/ml bovine γ-globulin; made in house
# Type: binding
Experimental Endpoint: FP binding score, percentage inhibition of tracer peptide binding, 24h (%)

>>> endpoint_value("F[2-AOC]YSDFHF[NLE] [F69]")
89
>>> endpoint_value("G[2-AOC]LGFVFT[PRG] [G26]")
54
>>> endpoint_value("[4-FPHE][2-AOC]LSTVLGV [N95]")
90
>>> endpoint_value("FMYSDFHF[2-AOC] [F19]")
86
>>> endpoint_value("[THR-BZL][2-AOC]YSDFHFI [F141]")
93
>>> endpoint_value("N[2-AOC]LSTVLGV [N40]")
67
>>> endpoint_value("GILGFV[BUTGLY]TL [G20]")
79
>>> endpoint_value("[2-AOC]MYSDFHFI [F95]")
80
>>> endpoint_value("[am-phg]MYSDFHF[2-AOC] [F7]")
90
>>> endpoint_value("[am-phg]MYSDFHFI [F111]")
72
>>> endpoint_value("[am-phg][CpALA]LGFVFTL [G27]")
91
>>> endpoint_value("[THR-BZL]MLSTVLGV [N176]")
70
>>> endpoint_value("[3-THI][2-AOC]YSDFHFI [F102]")
91
>>> endpoint_value("[BCA][2-AOC]YSDFHFI [F112]")
91
>>> endpoint_value("[3-PYRA]ILGFVFT[2-AOC] [G29]")
38
>>> endpoint_value("[SOME][2-AOC]LSTVLGV [N92]")
81
>>> endpoint_value("[2-AOC]MLSTVLGV [N39]")
63
>>> endpoint_value("FMYSDFHF[CSET] [F54]")
80
>>> endpoint_value("[3-PYRA]MYSDFHFI [F100]")
73
>>> endpoint_value("[OM-HS][2-AOC]LSTVLGV [N91]")
87
>>> endpoint_value("FMYSDFHF[CpALA] [F52]")
78
>>> endpoint_value("FMYSDFHF[HPG] [F63]")
78
>>> endpoint_value("[am-phg]MLSTVLG[2-AOC] [N11]")
88
>>> endpoint_value("[SOME]MLSTVLGV [N61]")
54
>>> endpoint_value("NMLSTVLG[CpALA] [N122]")
60
>>> endpoint_value("[am-phg][NVA]YSDFHFI [F193]")
81
>>> endpoint_value("[3-THI]MLSTVLG[2-AOC] [N98]")
79
>>> endpoint_value("NMLSTVLGV [NWT, reference compound]")
46
>>> endpoint_value("[THR-BZL]MYSDFHFI [F142]")
77
>>> endpoint_value("F[2-AOC]LSTVLGV [N177]")
88
>>> endpoint_value("[NVA]MLSTVLG[2-AOC] [N15]")
65
